tested on: KB human tumor subline (expressing RFC, FRα, and PCFT); assay: Growth inhibition assay, KB human tumor subline; assay type: cell-based; details: Table 2
Recorded IC50 by entry
Entry rule: numbers only, all in nM.

Nc1nc2[nH]cc(CCCCc3ccc(C(=O)N[C@@H](CCC(=O)O)C(=O)O)cc3)c2c(=O)[nH]1 [Compound 3]; 12.7
Nc1nc2[nH]cc(CCCOc3ccc(C(=O)N[C@@H](CCC(=O)O)C(=O)O)cc3)c2c(=O)[nH]1 [Compound 9]; 51

Next item in the queue.
Lab note: Nc1nc2[nH]cc(CCc3ccc(C(=O)N[C@@H](CCC(=O)O)C(=O)O)cc3)c2c(=O)[nH]1 [PMX, Pemetrexed] gave IC50 of 9.94

====

test system: transporter-null (R2) CHO cells; assay: Growth inhibition assay, transporter-null R2 CHO cells; type: cell-based; settings: Cricetulus griseus, Table 1, mean of 3 to 10 experiments
quantity: IC50

Lab entry: transporter-null (R2) CHO cells assay, compound `Nc1nc2[nH]cc(CCc3ccc(C(=O)N[C@@H](CCC(=O)O)C(=O)O)cc3)c2c(=O)[nH]1` , IC50 = > 1000 nM

====

system: CHO subline engineered to express human FRα (RT16); assay: Growth inhibition assay, CHO subline RT16 expressing FRα; assay type: cell-based; details: Table 1; growth inhibition by 50% relative to cells without drug; mean of 3 to 10 experiments; read-out: IC50 RT16, FR
quantity: IC50 (nM)
Entry rule: numbers only, all in nM.

Lab note: Nc1nc2[nH]cc(CCCCc3ccc(C(=O)N[C@@H](CCC(=O)O)C(=O)O)cc3)c2c(=O)[nH]1 [Compound 3] gave IC50 of 8.6

====

test system: CHO subline engineered to express human PCFT (R2/PCFT4); assay: Growth inhibition assay, CHO subline R2/PCFT4 expressing PCFT; type: cell-based; details: Table 1; R2/PCFT4 cells; mean of 3 to 10 experiments
quantity: IC50

Lab note: `Nc1nc2[nH]cc(CCCCc3ccc(C(=O)N[C@@H](CCC(=O)O)C(=O)O)cc3)c2c(=O)[nH]1` gave IC50 of 840 nM

src = patent US9650384B2
